Parameter: inhibition. Scope: all listed entries.
# TESTED_ON: E3 ubiquitin-protein ligase UHRF1 (Homo sapiens) (UniProt Q96T88)
# Sequence (Q96T88 whole entry, looked up, the tested form may be a part): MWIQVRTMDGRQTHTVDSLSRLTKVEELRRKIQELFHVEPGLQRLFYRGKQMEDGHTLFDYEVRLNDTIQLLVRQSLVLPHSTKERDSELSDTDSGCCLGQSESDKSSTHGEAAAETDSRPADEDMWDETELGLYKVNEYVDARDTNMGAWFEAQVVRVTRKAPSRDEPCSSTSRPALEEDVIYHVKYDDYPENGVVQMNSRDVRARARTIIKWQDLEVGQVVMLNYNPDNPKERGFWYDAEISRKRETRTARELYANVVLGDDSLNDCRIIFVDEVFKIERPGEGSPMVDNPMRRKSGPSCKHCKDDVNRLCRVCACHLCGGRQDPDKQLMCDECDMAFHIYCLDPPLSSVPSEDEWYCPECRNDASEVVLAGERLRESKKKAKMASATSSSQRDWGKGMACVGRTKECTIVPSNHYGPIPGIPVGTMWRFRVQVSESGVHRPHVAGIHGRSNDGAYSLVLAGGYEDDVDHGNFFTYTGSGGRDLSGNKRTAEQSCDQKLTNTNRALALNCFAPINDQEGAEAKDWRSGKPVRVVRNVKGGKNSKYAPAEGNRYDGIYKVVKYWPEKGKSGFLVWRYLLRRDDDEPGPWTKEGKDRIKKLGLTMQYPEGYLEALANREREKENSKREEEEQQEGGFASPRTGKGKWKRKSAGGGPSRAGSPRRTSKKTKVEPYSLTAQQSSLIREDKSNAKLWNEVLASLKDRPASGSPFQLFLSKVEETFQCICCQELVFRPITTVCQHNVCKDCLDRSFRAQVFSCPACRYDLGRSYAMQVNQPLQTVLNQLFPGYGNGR
# MEASUREMENT_NOTES: blockers of UHRF1 binding to methyl-oligo – biochemical, TR-FRET, human UHRF1, single concentration, counter-screen for MBD2 inhibitor project, primary screen (AID 687016);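 also: UHRF1 SRA domain binding a hemimethylated CpG hairpin DNA probe; 0% = median of test compound wells and 100% = reference inhibitor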
# EXPERIMENTAL_CONDITIONS: UHRF1 binding to methylated oligo, at 4.4 µM, stronger effect = higher value
The whole screen tested about 370,000 compounds, of which about 2,800 (0.76%) were called active. Shown is part of a subset that was picked to be rich in actives.

[
  {
    "COMPOUND": "CCCC1(C(=O)OC)NC(c2ccco2)C2C(=O)N(C)C(=O)C21 (stereo not given)",
    "TESTED_ON": "E3 ubiquitin-protein ligase UHRF1 (Homo sapiens) (UniProt Q96T88)",
    "inhibition": "26.9% (active)"
  },
  {
    "COMPOUND": "CCCSc1ccc([C@H]2N[C@@](Cc3ccccc3)(C(=O)OC)[C@H]3C(=O)N(C)C(=O)[C@@H]23)cc1",
    "TESTED_ON": "E3 ubiquitin-protein ligase UHRF1 (Homo sapiens) (UniProt Q96T88)",
    "inhibition": "2.8% (inactive)"
  },
  {
    "COMPOUND": "COC(=O)C1CN(CC(C)C)CCS(=O)(=O)N1Cc1ccc(F)cc1 (stereo not given)",
    "TESTED_ON": "E3 ubiquitin-protein ligase UHRF1 (Homo sapiens) (UniProt Q96T88)",
    "inhibition": "0.32% (inactive)"
  },
  {
    "COMPOUND": "Cc1ccc(-c2nnc(SCC(=O)Nc3ccc(Oc4ccccc4)cc3)n2Cc2ccco2)cc1",
    "TESTED_ON": "E3 ubiquitin-protein ligase UHRF1 (Homo sapiens) (UniProt Q96T88)",
    "inhibition": "-0.31% (inactive)"
  },
  {
    "COMPOUND": "COC(=O)[C@]12C[C@H](CC(=O)N3CCOCC3)C(=O)N(Cc3ccc(Cl)cc3Cl)C1=C[C@H](C(C)C)O[C@@H]2C1CC1",
    "TESTED_ON": "E3 ubiquitin-protein ligase UHRF1 (Homo sapiens) (UniProt Q96T88)",
    "inhibition": "-0.21% (inactive)"
  },
  {
    "COMPOUND": "CC(=O)N1CCCN(C2=Nc3ccccc3Sc3ccccc32)CC1",
    "TESTED_ON": "E3 ubiquitin-protein ligase UHRF1 (Homo sapiens) (UniProt Q96T88)",
    "inhibition": "11.8% (inactive)"
  },
  {
    "COMPOUND": "Cc1cc(C)c2nc3nc(C)cc(C)c3c(N)c2c1",
    "TESTED_ON": "E3 ubiquitin-protein ligase UHRF1 (Homo sapiens) (UniProt Q96T88)",
    "inhibition": "26.9% (active)"
  },
  {
    "COMPOUND": "COc1ccc(CSc2nnc(-c3cccc(C)c3)n2C)cc1",
    "TESTED_ON": "E3 ubiquitin-protein ligase UHRF1 (Homo sapiens) (UniProt Q96T88)",
    "inhibition": "0.25% (inactive)"
  },
  {
    "COMPOUND": "Cc1ccc(NC(=O)C2CCCN(S(=O)(=O)c3c(C)noc3C)C2)c(C)c1 (stereo not given)",
    "TESTED_ON": "E3 ubiquitin-protein ligase UHRF1 (Homo sapiens) (UniProt Q96T88)",
    "inhibition": "-1.46% (inactive)"
  },
  {
    "COMPOUND": "COC(=O)c1cccc(Cn2ccc3ccc(-c4ccc5ccn(C(=O)c6ccccc6C)c5c4)cc32)c1",
    "TESTED_ON": "E3 ubiquitin-protein ligase UHRF1 (Homo sapiens) (UniProt Q96T88)",
    "inhibition": "-1.17% (inactive)"
  },
  {
    "COMPOUND": "Cc1ccc(NC(=S)NNC(=O)CSc2nnc(SCc3ccccc3Cl)s2)cc1",
    "TESTED_ON": "E3 ubiquitin-protein ligase UHRF1 (Homo sapiens) (UniProt Q96T88)",
    "inhibition": "-10.8% (inactive)"
  },
  {
    "COMPOUND": "O=C(CN1CCCc2ccccc21)NCc1ccc(F)cc1",
    "TESTED_ON": "E3 ubiquitin-protein ligase UHRF1 (Homo sapiens) (UniProt Q96T88)",
    "inhibition": "-2.07% (inactive)"
  },
  {
    "COMPOUND": "C[C@H](C(=O)N(C)c1ccccc1)[C@@H](O)c1ccc(Cl)cc1",
    "TESTED_ON": "E3 ubiquitin-protein ligase UHRF1 (Homo sapiens) (UniProt Q96T88)",
    "inhibition": "-0.97% (inactive)"
  },
  {
    "COMPOUND": "Clc1ccc(-n2c(COc3ccccc3)nnc2SCc2nc3ccccc3[nH]2)cc1",
    "TESTED_ON": "E3 ubiquitin-protein ligase UHRF1 (Homo sapiens) (UniProt Q96T88)",
    "inhibition": "-1.31% (inactive)"
  },
  {
    "COMPOUND": "CC(CCN1CCC(C(O)(c2ccccc2)c2ccccc2)CC1)Oc1ccc(C(F)(F)F)cc1 (stereo not given)",
    "TESTED_ON": "E3 ubiquitin-protein ligase UHRF1 (Homo sapiens) (UniProt Q96T88)",
    "inhibition": "1.26% (inactive)"
  },
  {
    "COMPOUND": "CCOc1ccccc1NC(=O)C12CC3CC(C1)CC(c1ccc(C)cc1)(C3)C2",
    "TESTED_ON": "E3 ubiquitin-protein ligase UHRF1 (Homo sapiens) (UniProt Q96T88)",
    "inhibition": "2.15% (inactive)"
  },
  {
    "COMPOUND": "CC[C@@]1(C(=O)OC)N[C@H](CN(C)C(C)=O)[C@@H]2C(=O)N(C)C(=O)[C@@H]21",
    "TESTED_ON": "E3 ubiquitin-protein ligase UHRF1 (Homo sapiens) (UniProt Q96T88)",
    "inhibition": "4.65% (inactive)"
  },
  {
    "COMPOUND": "FC(F)(F)c1cccc(Cn2ccc3ccc(-c4ccc5ccn(Cc6ccccc6)c5c4)cc32)c1",
    "TESTED_ON": "E3 ubiquitin-protein ligase UHRF1 (Homo sapiens) (UniProt Q96T88)",
    "inhibition": "0.27% (inactive)"
  },
  {
    "COMPOUND": "CCCn1c(C(Cc2ccccc2)NC(=O)COC)nc2ccccc21 (stereo not given)",
    "TESTED_ON": "E3 ubiquitin-protein ligase UHRF1 (Homo sapiens) (UniProt Q96T88)",
    "inhibition": "-1.58% (inactive)"
  },
  {
    "COMPOUND": "CCCCNS(=O)(=O)c1ccc(S(=O)(=O)n2cnc3ccccc32)cc1",
    "TESTED_ON": "E3 ubiquitin-protein ligase UHRF1 (Homo sapiens) (UniProt Q96T88)",
    "inhibition": "20.7% (active)"
  }
]

* * *

Parameter: inhibition. Scope: all listed entries.
# TESTED_ON: E3 ubiquitin-protein ligase UHRF1 (Homo sapiens)
# MEASUREMENT_NOTES: blockers of UHRF1 binding to methyl-oligo – biochemical, TR-FRET, human UHRF1, single concentration, counter-screen for MBD2 inhibitor project, primary screen (AID 687016);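 also: UHRF1 SRA domain binding a hemimethylated CpG hairpin DNA probe; 0% = median of test compound wells and 100% = reference inhibitor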
# EXPERIMENTAL_CONDITIONS: UHRF1 binding to methylated oligo, at 4.4 µM, stronger effect = higher value
Screen size: about 370,000 compounds; about 2,800 (0.76%) were called active. The full list was thinned out, with actives kept by preference.

[
  {
    "COMPOUND": "O=C(c1cccc(C(F)(F)F)c1)N1CC[C@H]2[C@H](CCCN2Cc2cc(F)cc(F)c2)C1",
    "TESTED_ON": "E3 ubiquitin-protein ligase UHRF1 (Homo sapiens)",
    "VALUE_UNIT": "%",
    "inhibition": -0.64
  },
  {
    "COMPOUND": "CCOC(=O)CSc1nc(C)cc2c1C(=O)OC2",
    "TESTED_ON": "E3 ubiquitin-protein ligase UHRF1 (Homo sapiens)",
    "VALUE_UNIT": "%",
    "inhibition": -0.04
  },
  {
    "COMPOUND": "Cc1cc(Br)cn2c(Cc3ccccc3C(F)(F)F)c(C3CCCCC3)nc12",
    "TESTED_ON": "E3 ubiquitin-protein ligase UHRF1 (Homo sapiens)",
    "VALUE_UNIT": "%",
    "inhibition": 11.3
  },
  {
    "COMPOUND": "O=C(CSc1nc2ccccc2n1Cc1ccccc1Cl)N/N=C\\c1c[nH]c2ccccc12",
    "TESTED_ON": "E3 ubiquitin-protein ligase UHRF1 (Homo sapiens)",
    "VALUE_UNIT": "%",
    "inhibition": -1.5
  },
  {
    "COMPOUND": "O=C1CC[C@@H](COc2ccc3[nH]cc(-c4ccccc4)c3c2-c2ccccc2)N1",
    "TESTED_ON": "E3 ubiquitin-protein ligase UHRF1 (Homo sapiens)",
    "VALUE_UNIT": "%",
    "inhibition": -0.59
  },
  {
    "COMPOUND": "C=CCN(Cc1ccc2c(c1)OCO2)C(C#CC1CC1)C(C)(C)C (stereo unspecified)",
    "TESTED_ON": "E3 ubiquitin-protein ligase UHRF1 (Homo sapiens)",
    "VALUE_UNIT": "%",
    "inhibition": 1.41
  },
  {
    "COMPOUND": "CCC(c1ccc(NC(=O)OC(C)(C)C)cc1)c1cc(OC)cc(OC)c1 (stereo unspecified)",
    "TESTED_ON": "E3 ubiquitin-protein ligase UHRF1 (Homo sapiens)",
    "VALUE_UNIT": "%",
    "inhibition": -0.84
  },
  {
    "COMPOUND": "CCN(Cc1ccncc1)C(=O)CCc1ccccc1",
    "TESTED_ON": "E3 ubiquitin-protein ligase UHRF1 (Homo sapiens)",
    "VALUE_UNIT": "%",
    "inhibition": -1.14
  },
  {
    "COMPOUND": "C[C@@H]1CN([C@@H](C)CO)C(=O)c2cccc(NC(=O)Nc3cccc4ccccc34)c2O[C@H]1CN(C)S(=O)(=O)c1ccccc1F",
    "TESTED_ON": "E3 ubiquitin-protein ligase UHRF1 (Homo sapiens)",
    "VALUE_UNIT": "%",
    "inhibition": -3.8
  },
  {
    "COMPOUND": "COP(=O)(O)CNC(=O)OCc1ccccc1",
    "TESTED_ON": "E3 ubiquitin-protein ligase UHRF1 (Homo sapiens)",
    "VALUE_UNIT": "%",
    "inhibition": -1.09
  },
  {
    "COMPOUND": "CCCCN(C)Cc1c(C)[nH]c2ccc(Cl)cc2c1=O",
    "TESTED_ON": "E3 ubiquitin-protein ligase UHRF1 (Homo sapiens)",
    "VALUE_UNIT": "%",
    "inhibition": 27
  },
  {
    "COMPOUND": "O=S1(=O)c2ccc(Br)cc2OC[C@H](Cc2ccccc2)N1Cc1cn(Cc2ccccc2)nn1",
    "TESTED_ON": "E3 ubiquitin-protein ligase UHRF1 (Homo sapiens)",
    "VALUE_UNIT": "%",
    "inhibition": 1.7
  },
  {
    "COMPOUND": "COC(=O)[C@@]12CCCCC3=C1N(CCC3)C(=O)[C@H]2CC(=O)NCc1cccc2ccccc12",
    "TESTED_ON": "E3 ubiquitin-protein ligase UHRF1 (Homo sapiens)",
    "VALUE_UNIT": "%",
    "inhibition": -1.21
  },
  {
    "COMPOUND": "CCCCN1CCN(C(=O)c2ccc3c(c2)NC(=O)C(C)(C)O3)CC1",
    "TESTED_ON": "E3 ubiquitin-protein ligase UHRF1 (Homo sapiens)",
    "VALUE_UNIT": "%",
    "inhibition": 0.61
  },
  {
    "COMPOUND": "Cc1ccc(NC(=O)c2cc(C)nn2-c2ccccc2)c(C)c1",
    "TESTED_ON": "E3 ubiquitin-protein ligase UHRF1 (Homo sapiens)",
    "VALUE_UNIT": "%",
    "inhibition": -1.23
  },
  {
    "COMPOUND": "O=C(CSc1nnc(COc2ccccc2)n1Cc1ccco1)c1ccc2ccccc2c1",
    "TESTED_ON": "E3 ubiquitin-protein ligase UHRF1 (Homo sapiens)",
    "VALUE_UNIT": "%",
    "inhibition": -1.9
  },
  {
    "COMPOUND": "CCOC(=O)[C@@]12CCC3=C1N(CCC3)C(=O)[C@H](CC(=O)N1CCN(C(=O)c3ccco3)CC1)C2",
    "TESTED_ON": "E3 ubiquitin-protein ligase UHRF1 (Homo sapiens)",
    "VALUE_UNIT": "%",
    "inhibition": -1.01
  },
  {
    "COMPOUND": "CCOC(=O)[C@]12CCCCC/C=C\\1N(Cc1ccc(OC)cc1)C(=O)[C@H]2CC(=O)NCCCN1CCCC1=O",
    "TESTED_ON": "E3 ubiquitin-protein ligase UHRF1 (Homo sapiens)",
    "VALUE_UNIT": "%",
    "inhibition": -0.93
  },
  {
    "COMPOUND": "CC1CCN(c2ccc(C(=O)O)cc2NS(=O)(=O)c2ccc(Br)s2)CC1",
    "TESTED_ON": "E3 ubiquitin-protein ligase UHRF1 (Homo sapiens)",
    "VALUE_UNIT": "%",
    "inhibition": -1.98
  },
  {
    "COMPOUND": "COc1cccc(CSc2nnc(-c3cccnc3)n2Cc2ccccc2)c1",
    "TESTED_ON": "E3 ubiquitin-protein ligase UHRF1 (Homo sapiens)",
    "VALUE_UNIT": "%",
    "inhibition": -0.03
  },
  {
    "COMPOUND": "O=C(C1CCN(S(=O)(=O)c2ccccc2)CC1)N1CCN(C2CCCCC2)CC1",
    "TESTED_ON": "E3 ubiquitin-protein ligase UHRF1 (Homo sapiens)",
    "VALUE_UNIT": "%",
    "inhibition": -0.54
  }
]

Hey, just so you know, these numbers are from PubChem BioAssay AID687016.
